inhibition at 50 µg/mL values, listed per item
Biological target: SoxS (Escherichia coli)
Sequence (P0A9E2 1-107): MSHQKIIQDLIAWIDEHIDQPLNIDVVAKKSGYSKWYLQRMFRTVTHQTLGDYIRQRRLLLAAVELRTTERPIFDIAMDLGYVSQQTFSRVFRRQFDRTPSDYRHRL
Experiment: Chemiluminescence-based SoxS-DNA binding assay
Set-up: made in house; species or system E. coli
Details: read-out: % Inhibition (SoxS binding to DNA)
readout.label: inhibition at 50 µg/mL

[
  {
    "compound": "CN(C)c1ccc(-c2nc3ccc([N+](=O)[O-])cc3n2O)cc1 [BP]",
    "target.under.test": "SoxS (Escherichia coli)",
    "readout.value": "> 70%"
  },
  {
    "compound": "Nc1ccc(-c2nc3ccc([N+](=O)[O-])cc3n2O)cc1 [BL]",
    "target.under.test": "SoxS (Escherichia coli)",
    "readout.value": "> 70%"
  },
  {
    "compound": "O=[N+]([O-])c1ccc2nc(-c3ccc(O)cc3)n(O)c2c1 [BG]",
    "target.under.test": "SoxS (Escherichia coli)",
    "readout.value": "30 to 69%"
  },
  {
    "compound": "O=C(Nc1ccc(-c2nc3ccc([N+](=O)[O-])cc3n2O)cc1)c1ccccc1 [A]",
    "target.under.test": "SoxS (Escherichia coli)",
    "readout.value": "> 70%"
  },
  {
    "compound": "CCOC(=O)COn1c(-c2ccccc2)nc2ccc([N+](=O)[O-])cc21 [AP]",
    "target.under.test": "SoxS (Escherichia coli)",
    "readout.value": "< 0%"
  }
]
